Tested on: Receptor-type tyrosine-protein kinase FLT3 (Homo sapiens), P36888 [D835Y]
Sequence (whole entry): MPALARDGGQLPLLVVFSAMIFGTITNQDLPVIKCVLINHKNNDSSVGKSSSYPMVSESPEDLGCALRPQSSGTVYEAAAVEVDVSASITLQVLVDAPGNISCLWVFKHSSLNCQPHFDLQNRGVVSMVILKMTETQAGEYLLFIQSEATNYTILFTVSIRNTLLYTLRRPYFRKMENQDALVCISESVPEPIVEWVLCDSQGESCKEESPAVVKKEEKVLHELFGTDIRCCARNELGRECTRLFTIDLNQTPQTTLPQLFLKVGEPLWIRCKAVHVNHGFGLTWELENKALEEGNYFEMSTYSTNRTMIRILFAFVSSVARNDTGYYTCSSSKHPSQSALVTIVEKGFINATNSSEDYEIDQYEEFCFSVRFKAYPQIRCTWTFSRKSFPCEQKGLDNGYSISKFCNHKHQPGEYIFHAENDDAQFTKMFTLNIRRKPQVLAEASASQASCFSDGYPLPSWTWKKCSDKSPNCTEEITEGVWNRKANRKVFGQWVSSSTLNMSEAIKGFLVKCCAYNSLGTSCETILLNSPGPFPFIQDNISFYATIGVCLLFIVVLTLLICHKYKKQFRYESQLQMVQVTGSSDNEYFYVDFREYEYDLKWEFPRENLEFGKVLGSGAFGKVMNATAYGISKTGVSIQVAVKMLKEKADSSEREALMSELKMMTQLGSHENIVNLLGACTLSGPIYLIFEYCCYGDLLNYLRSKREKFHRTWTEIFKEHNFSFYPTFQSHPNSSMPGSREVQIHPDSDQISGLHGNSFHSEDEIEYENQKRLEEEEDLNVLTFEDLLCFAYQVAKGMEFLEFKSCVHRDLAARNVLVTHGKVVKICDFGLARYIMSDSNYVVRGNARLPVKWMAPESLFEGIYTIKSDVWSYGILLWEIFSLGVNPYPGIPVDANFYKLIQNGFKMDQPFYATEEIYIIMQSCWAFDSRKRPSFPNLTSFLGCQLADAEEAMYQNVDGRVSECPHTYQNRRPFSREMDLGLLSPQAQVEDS
Conditions: at 1 µM
Measured inhibition of individual entries
Give just the numeric value; % need not be written.

Observe how each entry below is paired with its result.
chemical.structure	inhibition / %
O=C(NCC1CC1)c1ccc(-c2cccc(C(=O)NC3CC3)c2)cc1	4.69
Clc1ccc(CNc2nccc(-c3cnn4ncccc34)n2)cc1	2.01
Cc1ccc(NC(=O)c2ccoc2)cc1-c1ccc(C(=O)NCC2CC2)cc1	5.74
COc1cc(Nc2ncc3c(C)nc(-c4cccc(Oc5ccccc5)c4)n3n2)cc(OC)c1OC	20.2
C#Cc1cccc(Nc2ncnc3ccc(OCCCCNCCS(C)(=O)=O)cc23)c1	1.41

Task item: Annotate the molecule CCc1nccc2c1nc(-c1nonc1N)n2CC with its measured inhibition.
Reply: -1.94

Task item: Annotate the molecule CCC(=O)Nc1ccc(C)c(-c2ccc(C(=O)NCC3CC3)cc2)c1 with its measured inhibition.
Reply: 3.02

Task item: Annotate the molecule Fc1ccc(-c2c(-c3ccncc3)nc3n2CCS3)cc1 with its measured inhibition.
Reply: -4.22

Task item: Annotate the molecule C[C@@H](Oc1cc(-n2cnc3ccc(OC4CCN(C)CC4)cc32)sc1C(N)=O)c1ccccc1Cl with its measured inhibition.
Reply: 12.2

Task item: Annotate the molecule c1ccc(Oc2ccc(Nc3ncc(-c4ccccc4)o3)cc2)cc1 with its measured inhibition.
Reply: 1.21

Task item: Annotate the molecule Cc1ccc(C(=O)NC(C)C)cc1-c1ccc(C(=O)NCC2CC2)cc1 with its measured inhibition.
Reply: 5.33
